Biological target: Neu5Ac(a2-3)Gal(b1-4)GlcNAc6S
Experiment: glycan array binding signal (z-score within array); higher = stronger binding
Conditions: glycan notation: IUPAC condensed, linker removed
About 410 targets per protein were measured; listed, in parts, are those with the strongest signals and a random draw of the rest.
VALUE KIND: glycan array binding signal (z-score)
Give the value as a plain number.

Completed entries (count: 2):
BINDER: StdA (Salmonella typhimurium), Q8Z3Z0 (protein) MAAAGMMYGASVFAADTTPTAGPFGSGKILFTGTITNSPCDIAPGDDAITVPFGQISYRKLNTANATTDSKPFTIHLQNCAFDPNETTIAGSAGKMSKVTVSFSGTADTSGKAYVSTGSAQHVGVQLLKGDNTSLITPNTPMPDGDAQQLQAGNNELNFFARLIALTDAATPGDVNASVTYTLKYL
VALUE KIND: glycan array binding signal (z-score)
TEST RESULT: -0.404

BINDER: RbmA (Vibrio cholerae), A0A2H4NFB8 (protein) MSNFKGSIMNKRHYYLASCLALLFSTASYAEVDCELQPVIEANLSLNQNQLASNGGYISSQLGIRNESCETVKFKYWLSIKGPEGIYFPAKAVVGVDTAQQESDALTDGRMLNVTRGFWVPEYMADGKYTVSLQVVAENGEVFKANQEFVKGGDLNSLPELNGLTIDIKNQFGINSVESTGGFVPFTIDLNNGREGEAKVEFWMTAVGPDGLIIPVHSREKWMIIAGNTFSKVRGINFDKSYPAGEYTINAQVVDIVSGERVEQLMTVVKK
VALUE KIND: glycan array binding signal (z-score)
TEST RESULT: 3

Query: Requested field: glycan array binding signal (z-score). Item: SpnanA (Streptococcus pneumoniae), P62575 (protein) MVIEKEDVETNASNGQRVDLSSELDKLKKLENATVHMEFKPDAKAPAFYNLFSVSSATKKDEYFTMAVYNNTATLEGRGSDGKQFYNNYNDAPLKVKPGQWNSVTFTVEKPTAELPKGRVRLYVNGVLSRTSLRSGNFIKDMPDVTHVQIGATKRANNTVWGSNLQIRNLTVYNRALTPEEVQKRS
Result: 3.89
